Experiment: Toxicity liver stage against HepG2, at 10uM
Type: cell-based
Set-up: test concentration 10 uM, cell line HepG2-A16-CD81EGFP
Conditions: human, HepG2-A16-CD81EGFP cells; read-out: INHIBITION
measurement_type: cytotoxicity at 10 µM (%)
Give bare numbers, in %.

compound | measurement_units | cytotoxicity at 10 µM
CN(C)S(=O)(=O)NC1CCCc2c1cnn2-c1ccc(C(C)(C)C)cc1 (stereo unspecified) | % | 42.5
COC(=O)CC(c1ccc(O)c(Cl)c1)c1oc(C)cc(=O)c1O (stereo unspecified) | % | -8.59
Cc1nc(CN2C(=O)C[C@H]3[C@H]2CCN3C2CCOC2)cs1 (stereo partly specified) | % | -139

Report cytotoxicity at 10 µM for each item below.
1. CC(NC(=O)NCCS(C)(=O)=O)c1ccc2c(c1)CCC(=O)N2 (stereo unspecified)
2. O=C(COCc1ccccc1)N1CCCC(n2cncn2)C1 (stereo unspecified)
3. O=C(NCC1CCCO1)c1c(-n2cnnn2)sc2c1CCC2 (stereo unspecified)
4. CS(=O)(=O)N1CC2(CCCN(C3COC3)C2)Cc2ccccc21 (stereo unspecified)
5. CCCNC(=O)c1c(-n2cnnn2)sc2c1CCC2
6. CC(C)N(C)C(=O)c1ccc(CNc2cncc(Cl)n2)cc1
7. CC(C)OCCCNC(=O)[C@@]12CNC[C@@H]1CN(S(C)(=O)=O)C2

1.39
-8.6
-16.3
5.15
4.05
2.87
6.99

Dear colleague, please send me the reported cytotoxicity at 10 µM for O=C1NC2(CCN(C(=O)c3ccc(Cl)cc3)CC2)CC1c1ccccc1 (stereo unspecified) when you can.
-12.2

###

Experiment: Toxicity liver stage against HepG2, at 10uM
Type: cell-based
Parameters: test concentration 10 uM, cell line HepG2-A16-CD81EGFP
Conditions: human, HepG2-A16-CD81EGFP cells; read-out: INHIBITION
So I've got a bunch of compounds here, and I need their cytotoxicity at 10 µM values.
Value and unit, in that order.

Sample records with cytotoxicity at 10 µM:
compound | cytotoxicity at 10 µM
O=C(CN1CCOC(Cn2cccn2)C1)Nc1nccs1 (centres undefined) | 3.64%
OCCOCc1n[nH]c2c1CN(Cc1cccs1)C2 | 6.65%
NC(=O)c1ccc(OCCC(=O)NC2CCc3c(F)cccc32)cc1 (centres undefined) | 2.02%
Cc1cn(CC(=O)NC2CCN(CC3CC3)CC2)c2ccccc12 | 0.951%

Report cytotoxicity at 10 µM for each item below.
1. Cc1ccc(NC2CCN(C(=O)c3ccoc3C)CC2)nn1
2. CN(C)C1(CNc2nccc(-c3cnn(C)c3)n2)CCSC1 (centres undefined)
3. COCCC(=O)Nc1ccnc(Oc2ccccc2)c1
4. Cc1nnc2n1CCN(CCOc1ccc(C(C)(C)C)cc1)C2
5. O=C(c1ccc(OCC2CC2)nc1)N1CCCC(n2cccn2)C1 (centres undefined)
6. CCc1nc(CN2CCOC(CNc3cccnn3)C2)cs1 (centres undefined)
7. CCSc1ncc(CN2CCN(c3nc(C)ncc3C)CC2)cn1
8. COCCN1CCC(Cc2cncc(-c3ccc(C(=O)O)cc3)n2)C1 (centres undefined)

["-12.7%", "-126%", "7.85%", "-17.1%", "-12.4%", "-11%", "27.3%", "-0.413%"]
